Molecular target: T1, CEACAM1 (Sino Biological) (human, UniProt P13688 35-428, limits assumed)
T1 construct: may be the same as CEACAM1-HIS; also called hCEACAM1; biotinylated soluble CEACAM1
T1 sequence: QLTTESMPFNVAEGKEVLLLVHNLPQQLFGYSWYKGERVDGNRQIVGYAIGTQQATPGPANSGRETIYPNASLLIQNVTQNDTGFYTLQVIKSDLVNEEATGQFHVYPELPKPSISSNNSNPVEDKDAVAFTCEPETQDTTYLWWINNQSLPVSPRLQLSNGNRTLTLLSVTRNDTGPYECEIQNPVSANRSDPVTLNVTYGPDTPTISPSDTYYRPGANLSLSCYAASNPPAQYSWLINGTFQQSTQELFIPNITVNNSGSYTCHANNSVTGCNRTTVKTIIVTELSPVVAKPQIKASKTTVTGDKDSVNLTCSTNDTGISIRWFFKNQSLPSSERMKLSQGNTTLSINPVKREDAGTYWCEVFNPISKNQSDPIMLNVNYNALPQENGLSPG
Experiment: SPR multi-cycle, IgG on Protein A
quantityMeasured: relative KD to Parent (ratio)
Kindly answer with a numeric value in ratio, unit omitted.

q: Please list relative KD to Parent recorded for the binder He14/L1 (antibody, IgG4, V domains shown, IgG4 S241P, kappa; also called He14 / 1) VH: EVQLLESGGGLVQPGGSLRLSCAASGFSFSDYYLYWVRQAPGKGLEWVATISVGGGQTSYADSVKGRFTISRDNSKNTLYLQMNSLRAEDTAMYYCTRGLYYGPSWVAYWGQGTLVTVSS VL: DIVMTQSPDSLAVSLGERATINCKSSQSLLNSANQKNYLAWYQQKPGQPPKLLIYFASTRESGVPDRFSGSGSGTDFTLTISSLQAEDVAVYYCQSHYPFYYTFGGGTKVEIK
a: 1.83

q: Please list relative KD to Parent recorded for the binder He9/L17 (antibody, IgG4, V domains shown, IgG4 S241P, kappa; also called He9 / 17) VH: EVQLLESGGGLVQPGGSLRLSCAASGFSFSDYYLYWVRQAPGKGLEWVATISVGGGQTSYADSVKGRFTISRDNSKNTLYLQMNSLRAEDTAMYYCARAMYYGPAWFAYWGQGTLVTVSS VL: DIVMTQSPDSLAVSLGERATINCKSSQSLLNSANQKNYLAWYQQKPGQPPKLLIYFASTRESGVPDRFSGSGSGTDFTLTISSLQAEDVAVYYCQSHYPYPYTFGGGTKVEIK
a: 4.55

q: Please list relative KD to Parent recorded for the binder He4/L16 (antibody, IgG4, V domains shown, IgG4 S241P, kappa; also called He4 / 16) VH: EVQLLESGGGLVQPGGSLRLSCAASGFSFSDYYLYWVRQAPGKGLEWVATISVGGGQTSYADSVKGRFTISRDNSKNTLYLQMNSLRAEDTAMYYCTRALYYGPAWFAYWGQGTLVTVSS VL: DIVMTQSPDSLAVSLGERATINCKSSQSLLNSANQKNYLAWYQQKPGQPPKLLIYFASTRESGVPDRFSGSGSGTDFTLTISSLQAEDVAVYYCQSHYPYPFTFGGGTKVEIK
a: 3.16

q: Please list relative KD to Parent recorded for the binder He17/L1 (antibody, IgG4, V domains shown, IgG4 S241P, kappa; also called 17 / 1; H17/L1) VH: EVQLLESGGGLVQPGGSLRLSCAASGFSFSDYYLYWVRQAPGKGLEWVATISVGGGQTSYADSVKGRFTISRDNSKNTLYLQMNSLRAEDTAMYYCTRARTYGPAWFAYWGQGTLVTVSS VL: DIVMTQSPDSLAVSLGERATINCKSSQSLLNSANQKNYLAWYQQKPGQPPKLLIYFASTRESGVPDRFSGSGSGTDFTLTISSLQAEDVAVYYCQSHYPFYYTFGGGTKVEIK
a: 6.31

q: Please list relative KD to Parent recorded for the binder Parent VH/L1 (antibody, IgG4, V domains shown, IgG4 S241P, kappa; also called VHp/L1; VH2 N56Q / 1) VH: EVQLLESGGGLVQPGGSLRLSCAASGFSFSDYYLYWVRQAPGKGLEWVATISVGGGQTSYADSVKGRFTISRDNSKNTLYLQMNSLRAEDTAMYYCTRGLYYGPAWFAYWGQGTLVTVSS VL: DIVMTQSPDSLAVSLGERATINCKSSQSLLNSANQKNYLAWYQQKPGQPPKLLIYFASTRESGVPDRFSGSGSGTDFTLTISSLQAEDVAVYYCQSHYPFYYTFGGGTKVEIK
a: 0.68

q: Please list relative KD to Parent recorded for the binder He9/L4#2 (antibody, IgG4, V domains shown, IgG4 S241P, kappa) VH: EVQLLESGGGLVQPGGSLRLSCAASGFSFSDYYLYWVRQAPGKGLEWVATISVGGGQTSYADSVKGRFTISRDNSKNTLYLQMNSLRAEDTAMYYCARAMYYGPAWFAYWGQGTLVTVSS VL: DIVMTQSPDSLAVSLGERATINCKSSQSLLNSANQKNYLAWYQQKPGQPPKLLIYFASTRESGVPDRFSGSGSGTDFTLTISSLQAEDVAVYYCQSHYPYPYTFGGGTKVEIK
a: 3.89

q: Please list relative KD to Parent recorded for the binder Parent VH/L18 (antibody, IgG4, V domains shown, IgG4 S241P, kappa; also called VHp/L18; VH2 N56Q / 18) VH: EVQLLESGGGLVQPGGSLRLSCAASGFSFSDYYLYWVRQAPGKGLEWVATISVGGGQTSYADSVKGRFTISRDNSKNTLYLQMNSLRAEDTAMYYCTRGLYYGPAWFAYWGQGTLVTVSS VL: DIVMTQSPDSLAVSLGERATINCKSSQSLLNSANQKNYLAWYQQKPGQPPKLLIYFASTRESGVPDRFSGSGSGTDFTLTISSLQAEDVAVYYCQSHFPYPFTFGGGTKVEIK
a: 1.84

q: Please list relative KD to Parent recorded for the binder He17/L16 (antibody, IgG4, V domains shown, IgG4 S241P, kappa; also called 17 / 16) VH: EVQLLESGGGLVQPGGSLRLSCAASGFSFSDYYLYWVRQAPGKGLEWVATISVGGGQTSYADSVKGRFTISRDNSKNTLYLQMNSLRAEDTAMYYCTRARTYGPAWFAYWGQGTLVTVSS VL: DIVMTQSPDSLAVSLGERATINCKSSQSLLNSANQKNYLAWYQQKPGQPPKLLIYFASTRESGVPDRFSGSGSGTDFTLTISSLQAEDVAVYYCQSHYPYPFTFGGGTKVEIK
a: 3.31

q: Please list relative KD to Parent recorded for the binder He3/L20 (antibody, IgG4, V domains shown, IgG4 S241P, kappa; also called He3 / 20) VH: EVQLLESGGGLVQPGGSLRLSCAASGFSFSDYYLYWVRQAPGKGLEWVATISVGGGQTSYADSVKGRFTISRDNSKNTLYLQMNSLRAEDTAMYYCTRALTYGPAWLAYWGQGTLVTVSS VL: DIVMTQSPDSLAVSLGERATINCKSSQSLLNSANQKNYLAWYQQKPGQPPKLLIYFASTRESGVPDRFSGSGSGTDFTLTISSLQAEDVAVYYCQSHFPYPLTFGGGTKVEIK
a: 3.34
